Listing of recorded 8OG:A repair function score by entry.
B1: library; numbered along this chain (parent)
chain: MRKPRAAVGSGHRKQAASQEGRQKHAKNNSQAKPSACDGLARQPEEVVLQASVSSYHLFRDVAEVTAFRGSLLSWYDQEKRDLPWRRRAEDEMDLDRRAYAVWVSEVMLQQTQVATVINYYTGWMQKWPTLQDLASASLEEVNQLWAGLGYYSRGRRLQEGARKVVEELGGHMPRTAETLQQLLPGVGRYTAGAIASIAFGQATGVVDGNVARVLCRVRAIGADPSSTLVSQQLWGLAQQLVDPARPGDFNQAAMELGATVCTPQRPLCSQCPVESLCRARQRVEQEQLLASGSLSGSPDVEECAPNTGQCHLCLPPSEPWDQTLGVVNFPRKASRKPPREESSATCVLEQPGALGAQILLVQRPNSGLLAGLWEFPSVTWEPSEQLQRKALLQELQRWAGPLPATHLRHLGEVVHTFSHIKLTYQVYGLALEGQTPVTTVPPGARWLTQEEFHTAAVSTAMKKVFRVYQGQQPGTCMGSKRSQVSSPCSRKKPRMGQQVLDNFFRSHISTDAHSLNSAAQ

Variants of: B1
procedure.summary: 8OG:A repair function score (normalized; synonymous = 0, nonsense = -1) (normalized log-likelihood score); higher = more repair activity (WT-like);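 also: cells sorted at 72 h after reporter transfection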
settings: with 8OG:A DNA repair reporter (GFP) in HEK-293 MUTYH KO cells
assay.readout: 8OG:A repair function score

mutant.id: R60A
experimental.value: -0.0135
--
mutant.id: T380Q
experimental.value: 0.429
--
mutant.id: I509A
experimental.value: 0.0157
--
mutant.id: Q144D
experimental.value: -0.5
--
mutant.id: K164P
experimental.value: -1.12
--
mutant.id: Q521L
experimental.value: -0.0455
--
mutant.id: Q232T
experimental.value: -0.105
--
mutant.id: R87F
experimental.value: -0.0196
--
mutant.id: V107F
experimental.value: -0.314
--
mutant.id: P339C
experimental.value: -0.157
--
mutant.id: T440Q
experimental.value: -0.0653
--
mutant.id: D61Y
experimental.value: -0.0853
--
mutant.id: Q521N
experimental.value: 0.00751
--
mutant.id: N329M
experimental.value: -0.264
--
mutant.id: A147P
experimental.value: -0.734
--
mutant.id: L411F
experimental.value: -0.151
--
mutant.id: V207I
experimental.value: -0.363
--
mutant.id: S292I
experimental.value: 0.000296
--
mutant.id: Q470F
experimental.value: -0.0175
--
mutant.id: Q426S
experimental.value: -0.0807
--
mutant.id: Q282T
experimental.value: -0.0623
--
mutant.id: R398N
experimental.value: -0.285

The values you see were collected from the supplement of paper PMC11908140.
